system: QGY-7703; assay: Antiproliferative activity against human QGY7703 cells after 24 hrs by CCK-8 assay; format: functional, cell-based; conditions: QGY-7703, 24 h
In this section we review reported IC50 values for a set of compounds.
Quick note: give the figure in µM, leave out the unit.

Recorded results for 10 compounds are shown here.
compound	unit_of_measurement	IC50
C=C1C(=O)O[C@@H]2C3=C(C)[C@@H](OC(=O)c4ccc(I)cc4)CC3[C@](C)(OC(C)=O)CC[C@@H]12 (some centres not stated)	µM	9
C=C1C(=O)O[C@@H]2C3=C(C)[C@@H](OC(=O)/C=C/c4ccc(C)cc4)CC3[C@](C)(OC(C)=O)CC[C@@H]12 (some centres not stated)	µM	10.6
C=C1C(=O)O[C@@H]2C3=C(C)[C@@H](OC(=O)/C=C/c4ccc(F)cc4)CC3[C@](C)(OC(C)=O)CC[C@@H]12 (some centres not stated)	µM	12.2
C=C1C(=O)O[C@@H]2C3=C(C)[C@@H](OC(=O)c4ccccc4)CC3[C@](C)(OC(C)=O)CC[C@@H]12 (some centres not stated)	µM	13
C=C1C(=O)O[C@@H]2C3=C(C)[C@@H](OC(=O)c4ccc(C(C)(C)C)cc4)CC3[C@](C)(OC(C)=O)CC[C@@H]12 (some centres not stated)	µM	5.13
C=C1C(=O)O[C@@H]2C3=C(C)[C@@H](OC(=O)c4ccc(C)cc4)CC3[C@](C)(OC(C)=O)CC[C@@H]12 (some centres not stated)	µM	12.2
C=C1C(=O)O[C@@H]2C3=C(C)[C@@H](OC(=O)c4ccc(OC(F)(F)F)cc4)CC3[C@](C)(OC(C)=O)CC[C@@H]12 (some centres not stated)	µM	11.3
C=C1C(=O)O[C@@H]2C3=C(C)[C@@H](OC(=O)c4ccc(OC)cc4)CC3[C@](C)(OC(C)=O)CC[C@@H]12 (some centres not stated)	µM	22.3
C=C1C(=O)O[C@@H]2C3=C(C)[C@@H](OC(=O)/C=C/c4ccccc4)CC3[C@](C)(OC(C)=O)CC[C@@H]12 (some centres not stated)	µM	18.8
C=C1C(=O)O[C@@H]2C3=C(C)[C@@H](OC(=O)c4ccc(CCCCC)cc4)CC3[C@](C)(OC(C)=O)CC[C@@H]12 (some centres not stated)	µM	7.19

Reported IC50 ( C=C1C(=O)O[C@@H]2C3=C(C)[C@@H](OC(=O)c4ccc(Br)cc4)CC3[C@](C)(OC(C)=O)CC[C@@H]12 (some centres not stated) ) = 13.7

Lab note: measured IC50 of C=C1C(=O)O[C@@H]2C3=C(C)[C@@H](OC(=O)c4ccc(C#N)cc4)CC3[C@](C)(OC(C)=O)CC[C@@H]12 (some centres not stated) was 22.8

The compound identified as C=C1C(=O)O[C@@H]2C3=C(C)[C@@H](OC(=O)c4ccc(CCC)cc4)CC3[C@](C)(OC(C)=O)CC[C@@H]12 (some centres not stated) registered its IC50 at 8.33

IC50 in this record for C=C1C(=O)O[C@@H]2C3=C(C)[C@@H](OC(=O)c4ccc(Cl)cc4)CC3[C@](C)(OC(C)=O)CC[C@@H]12 (some centres not stated) : 10.1

Item: O=c1[nH]cc(F)c(=O)[nH]1 [FLUOROURACIL] | IC50: 14.2

The compound C=C1C(=O)O[C@@H]2C3=C(C)[C@@H](OC(=O)/C=C/c4ccc(C(F)(F)F)cc4)CC3[C@](C)(OC(C)=O)CC[C@@H]12 (some centres not stated) showed IC50 equal to 12.7

Reported IC50 of C=C1C(=O)O[C@@H]2C3=C(C)[C@@H](OC(=O)/C=C/c4ccc(Cl)cc4)CC3[C@](C)(OC(C)=O)CC[C@@H]12 (some centres not stated) : 3.06

Entry under test: C=C1C(=O)O[C@@H]2C3=C(C)[C@@H](OC(=O)/C=C/c4ccc(OC)cc4)CC3[C@](C)(OC(C)=O)CC[C@@H]12 (some centres not stated) . Its IC50 was 11.8

IC50 for C=C1C(=O)O[C@@H]2C3=C(C)[C@@H](OC(=O)c4ccc(C(F)(F)F)cc4)CC3[C@](C)(OC(C)=O)CC[C@@H]12 (some centres not stated) is 5.64

Quick note, IC50 for C=C1C(=O)O[C@@H]2C3=C(C)[C@@H](OC(=O)c4ccc(F)cc4)CC3[C@](C)(OC(C)=O)CC[C@@H]12 (some centres not stated) landed at 6.78

// C=C1C(=O)O[C@@H]2C3=C(C)[C@@H](OC(=O)c4ccc(CCCC)cc4)CC3[C@](C)(OC(C)=O)CC[C@@H]12 (some centres not stated) : IC50 value = 7.2

The reported IC50 of the compound C=C1C(=O)O[C@@H]2C3=C(C)[C@@H](OC(=O)/C=C/c4ccc(Br)cc4)CC3[C@](C)(OC(C)=O)CC[C@@H]12 (some centres not stated) was 8.91

###

tested on: HepG2; assay: Antiproliferative activity against human HepG2 cells at 10 uM after 24 hrs by CCK-8 assay relative to control; type: functional
Entries and their measured Activity follow.
Please respond with the number in % and leave the unit unwritten.

Worked examples follow.
compound	unit_of_measurement	Activity
C=C1C(=O)O[C@@H]2C3=C(C)[C@@H](OC(=O)c4ccc(CCCC)cc4)CC3[C@](C)(OC(C)=O)CC[C@@H]12 (some centres undefined)	%	67.53
C=C1C(=O)O[C@@H]2C3=C(C)[C@@H](OC(=O)c4ccc(C#N)cc4)CC3[C@](C)(OC(C)=O)CC[C@@H]12 (some centres undefined)	%	62.58
C=C1C(=O)O[C@@H]2C3=C(C)[C@@H](OC(=O)/C=C/c4ccc(F)cc4)CC3[C@](C)(OC(C)=O)CC[C@@H]12 (some centres undefined)	%	67.53
C=C1C(=O)O[C@@H]2C3=C(C)[C@@H](OC(=O)c4ccc(C(F)(F)F)cc4)CC3[C@](C)(OC(C)=O)CC[C@@H]12 (some centres undefined)	%	72.42
O=c1[nH]cc(F)c(=O)[nH]1	%	50.58

The compound C=C1C(=O)O[C@@H]2C3=C(C)[C@@H](OC(=O)/C=C/c4ccc(SC)cc4)CC3[C@](C)(OC(C)=O)CC[C@@H]12 (some centres undefined) showed Activity equal to 36.24

C=C1C(=O)O[C@@H]2C3=C(C)[C@@H](OC(=O)/C=C/c4ccccc4)CC3[C@](C)(OC(C)=O)CC[C@@H]12 (some centres undefined) yielded Activity of 56.11

Quick note, Activity for C=C1C(=O)O[C@@H]2C3=C(C)[C@@H](OC(=O)c4ccc(OC(F)(F)F)cc4)CC3[C@](C)(OC(C)=O)CC[C@@H]12 (some centres undefined) landed at 69.25

###

The molecules listed here are annotated with their Activity.
tested on: HepG2; experiment: Antiproliferative activity against human HepG2 cells at 10 uM after 24 hrs by CCK-8 assay relative to control; assay type: functional

Here's what some known entries look like.
molecule	observation_type	observed_measurement
C=C1C(=O)O[C@@H]2C3=C(C)[C@@H](OC(=O)c4ccc(OC)cc4)CC3[C@](C)(OC(C)=O)CC[C@@H]12 (stereo partly specified)	Activity	53.03%
C=C1C(=O)O[C@@H]2C3=C(C)[C@@H](OC(=O)/C=C/c4ccc(C(F)(F)F)cc4)CC3[C@](C)(OC(C)=O)CC[C@@H]12 (stereo partly specified)	Activity	71.14%
C=C1C(=O)O[C@@H]2C3=C(C)[C@@H](O)CC3[C@](C)(OC(C)=O)CC[C@@H]12 (stereo partly specified)	Activity	32.02%
C=C1C(=O)O[C@@H]2C3=C(C)[C@@H](OC(=O)c4ccccc4)CC3[C@](C)(OC(C)=O)CC[C@@H]12 (stereo partly specified)	Activity	68.47%
C=C1C(=O)O[C@@H]2C3=C(C)[C@@H](OC(=O)c4ccc(F)cc4)CC3[C@](C)(OC(C)=O)CC[C@@H]12 (stereo partly specified)	Activity	78.61%

Short answer for C=C1C(=O)O[C@@H]2C3=C(C)[C@@H](OC(=O)c4ccc(Br)cc4)CC3[C@](C)(OC(C)=O)CC[C@@H]12 (stereo partly specified) : Activity was 71.06%

Record C=C1C(=O)O[C@@H]2C3=C(C)[C@@H](OC(=O)/C=C/c4ccc(OCCC)cc4)CC3[C@](C)(OC(C)=O)CC[C@@H]12 (stereo partly specified) . Reported Activity: 47.78%

The recorded Activity for entry C=C1C(=O)O[C@@H]2C3=C(C)[C@@H](OC(=O)/C=C/c4ccc(OC)cc4)CC3[C@](C)(OC(C)=O)CC[C@@H]12 (stereo partly specified) equals 61.14%

get_value(item= C=C1C(=O)O[C@@H]2C3=C(C)[C@@H](OC(=O)/C=C/c4ccc([N+](=O)[O-])cc4)CC3[C@](C)(OC(C)=O)CC[C@@H]12 (stereo partly specified) , readout=Activity) returns 42.67%

Activity measured on C=C1C(=O)O[C@@H]2C3=C(C)[C@@H](OC(=O)c4ccc(Cl)cc4)CC3[C@](C)(OC(C)=O)CC[C@@H]12 (stereo partly specified) = 72.69%

molecule C=C1C(=O)O[C@@H]2C3=C(C)[C@@H](OC(=O)c4ccc(I)cc4)CC3[C@](C)(OC(C)=O)CC[C@@H]12 (stereo partly specified) , Activity observed: 63.11%

Value of Activity reported for the molecule C=C1C(=O)O[C@@H]2C3=C(C)[C@@H](OC(=O)/C=C/c4ccc(C)cc4)CC3[C@](C)(OC(C)=O)CC[C@@H]12 (stereo partly specified) is 72.03%

The origin of these recorded values is ChEMBL document CHEMBL4196055.
